Hey, just so you know, these numbers are from patent US10308639B2.

subjectOfTest: PI3Kδ (Homo sapiens, UniProt O00329)
Construct: made in house
Sequence (O00329 whole entry): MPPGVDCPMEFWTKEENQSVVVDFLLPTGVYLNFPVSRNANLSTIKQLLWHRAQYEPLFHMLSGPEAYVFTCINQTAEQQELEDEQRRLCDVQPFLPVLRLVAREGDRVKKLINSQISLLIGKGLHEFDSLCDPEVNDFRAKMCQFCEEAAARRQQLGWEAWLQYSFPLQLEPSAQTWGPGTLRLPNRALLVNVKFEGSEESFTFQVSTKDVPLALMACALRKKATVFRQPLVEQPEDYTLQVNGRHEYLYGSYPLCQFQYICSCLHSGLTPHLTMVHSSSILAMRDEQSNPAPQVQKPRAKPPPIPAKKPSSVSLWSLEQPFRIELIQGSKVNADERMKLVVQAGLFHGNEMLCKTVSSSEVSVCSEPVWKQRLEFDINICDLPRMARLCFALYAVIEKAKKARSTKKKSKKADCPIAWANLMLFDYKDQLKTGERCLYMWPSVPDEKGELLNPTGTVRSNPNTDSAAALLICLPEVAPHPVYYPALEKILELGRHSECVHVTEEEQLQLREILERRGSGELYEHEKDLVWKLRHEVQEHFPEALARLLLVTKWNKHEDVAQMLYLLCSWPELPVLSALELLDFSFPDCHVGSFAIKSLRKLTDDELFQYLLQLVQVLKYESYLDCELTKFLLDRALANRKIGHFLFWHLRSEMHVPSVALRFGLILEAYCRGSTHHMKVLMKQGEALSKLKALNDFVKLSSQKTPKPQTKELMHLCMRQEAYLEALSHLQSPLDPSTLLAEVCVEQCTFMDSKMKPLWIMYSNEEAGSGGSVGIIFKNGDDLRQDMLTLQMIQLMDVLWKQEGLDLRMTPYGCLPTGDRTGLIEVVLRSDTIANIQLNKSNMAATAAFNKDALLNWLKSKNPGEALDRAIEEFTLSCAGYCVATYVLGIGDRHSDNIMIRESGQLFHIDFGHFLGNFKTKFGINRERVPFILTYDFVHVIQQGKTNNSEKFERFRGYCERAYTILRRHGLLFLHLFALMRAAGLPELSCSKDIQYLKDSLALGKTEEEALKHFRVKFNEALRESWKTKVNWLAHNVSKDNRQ
Sequence (P27986 whole entry partner): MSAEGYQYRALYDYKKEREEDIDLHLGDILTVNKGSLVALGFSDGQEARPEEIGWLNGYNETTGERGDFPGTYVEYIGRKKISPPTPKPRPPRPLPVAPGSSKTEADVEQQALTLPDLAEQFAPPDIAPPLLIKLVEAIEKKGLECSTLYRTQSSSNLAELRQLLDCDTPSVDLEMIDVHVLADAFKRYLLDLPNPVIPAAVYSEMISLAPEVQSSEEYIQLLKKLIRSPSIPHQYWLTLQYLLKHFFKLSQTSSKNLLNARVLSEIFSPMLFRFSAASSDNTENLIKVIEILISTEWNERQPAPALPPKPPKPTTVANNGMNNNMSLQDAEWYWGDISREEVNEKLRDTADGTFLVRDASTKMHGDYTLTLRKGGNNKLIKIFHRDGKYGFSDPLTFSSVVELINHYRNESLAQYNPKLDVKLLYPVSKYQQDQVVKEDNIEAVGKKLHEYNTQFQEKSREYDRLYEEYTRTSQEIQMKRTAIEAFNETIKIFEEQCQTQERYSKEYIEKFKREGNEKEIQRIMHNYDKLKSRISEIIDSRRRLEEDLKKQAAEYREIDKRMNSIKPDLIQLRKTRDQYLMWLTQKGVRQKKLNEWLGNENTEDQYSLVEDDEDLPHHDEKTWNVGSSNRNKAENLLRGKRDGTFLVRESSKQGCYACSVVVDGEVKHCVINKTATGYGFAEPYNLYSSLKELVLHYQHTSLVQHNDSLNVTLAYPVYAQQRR
methodNotes: TR-FRET enzymatic activity assay, PI3Kδ
Type: biochemical
conditionSet: Table 2a; same assay
Below, each entry is listed alongside its reported pIC50.
// returns pIC50 (minus log10 of molar concentration), number only

// worked examples, pIC50 included
Given the molecule C[C@H](Nc1nc(N)nc(C(F)F)c1Cl)c1nc2cccc(Cl)c2c(=O)n1-c1cc[nH]n1 [Compound 225] , what is its reported pIC50? 6.52

Given the molecule C[C@H](Nc1nc(N)nc(N)c1Cl)c1nc2ccc(Cl)c(C(F)F)c2c(=O)n1-c1cc[nH]n1 [Compound 229] , what is its reported pIC50? 7.31

Given the molecule C[C@H](Nc1nc(N)nc(N)c1C#N)c1nc2c(Cl)ccc(Cl)c2c(=O)n1-c1c[nH]cn1 [Compound 286] , what is its reported pIC50? 9.52

Could you now consider this next molecule?
Given the molecule Cc1n[nH]cc1-n1c([C@@H](Nc2nc(N)nc(N)c2Cl)C2CC2)nc2c(Cl)cc(F)cc2c1=O [Compound 221] , what is its reported pIC50? 6.74

* * *

subjectOfTest: PI3Kδ (Homo sapiens)
Construct: made in house
methodNotes: TR-FRET enzymatic activity assay, PI3Kδ
Type: biochemical
conditionSet: Table 2a; same assay
measuredQuantity: log10 IC50 (log10 of the value in nM)
Annotation: log10 of IC50, nM basis.

Given the compound Cc1c[nH]nc1-n1c([C@@H](Nc2nc(N)nc(Cl)c2C#N)C2CC2)nc2cccc(Cl)c2c1=O [Compound 243] , what is its reported log10 IC50? 1.53

New cases:
Given the compound C[C@H](Nc1nc(N)nc(N)c1Cl)c1nc2c(C#N)cc(F)cc2c(=O)n1-c1cc[nH]n1 [Compound 271] , what is its reported log10 IC50? 1.26

Given the compound C[C@H](Nc1nc(N)nc(N)c1Cl)c1nc2cccc(C(F)(F)F)c2c(=O)n1-c1cn[nH]c1 [Compound 209] , what is its reported log10 IC50? 1.20

* * *

subjectOfTest: PI3Kβ (Homo sapiens, UniProt P42338)
Construct: made in house
Sequence (P42338 whole entry): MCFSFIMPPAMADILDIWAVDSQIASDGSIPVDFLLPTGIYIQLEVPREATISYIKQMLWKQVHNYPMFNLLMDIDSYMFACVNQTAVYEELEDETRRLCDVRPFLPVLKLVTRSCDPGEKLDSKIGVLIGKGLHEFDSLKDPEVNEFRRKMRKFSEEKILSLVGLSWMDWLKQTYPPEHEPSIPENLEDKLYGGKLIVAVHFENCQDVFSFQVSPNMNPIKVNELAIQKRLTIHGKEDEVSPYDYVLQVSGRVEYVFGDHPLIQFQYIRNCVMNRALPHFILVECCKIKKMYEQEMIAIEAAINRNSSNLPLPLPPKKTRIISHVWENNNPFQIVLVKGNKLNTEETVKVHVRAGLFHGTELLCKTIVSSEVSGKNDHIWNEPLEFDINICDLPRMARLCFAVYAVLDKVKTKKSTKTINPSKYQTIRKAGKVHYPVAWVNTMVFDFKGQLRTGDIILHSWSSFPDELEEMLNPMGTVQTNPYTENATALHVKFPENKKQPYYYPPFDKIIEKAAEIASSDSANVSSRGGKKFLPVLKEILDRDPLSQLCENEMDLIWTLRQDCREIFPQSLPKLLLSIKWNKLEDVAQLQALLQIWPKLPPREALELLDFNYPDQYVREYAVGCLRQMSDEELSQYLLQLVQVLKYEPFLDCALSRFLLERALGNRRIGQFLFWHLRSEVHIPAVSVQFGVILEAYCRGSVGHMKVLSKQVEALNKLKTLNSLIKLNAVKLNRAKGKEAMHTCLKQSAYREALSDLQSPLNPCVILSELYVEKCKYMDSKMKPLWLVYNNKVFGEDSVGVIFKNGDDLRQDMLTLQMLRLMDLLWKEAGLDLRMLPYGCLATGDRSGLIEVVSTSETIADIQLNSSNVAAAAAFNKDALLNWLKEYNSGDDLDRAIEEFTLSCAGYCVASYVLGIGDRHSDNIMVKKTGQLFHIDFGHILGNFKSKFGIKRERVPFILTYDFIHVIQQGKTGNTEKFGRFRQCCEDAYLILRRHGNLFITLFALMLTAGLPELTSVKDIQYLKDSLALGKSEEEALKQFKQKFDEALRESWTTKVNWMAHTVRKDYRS
Sequence (P27986 whole entry partner): as the sequence (P27986 whole entry partner) above
methodNotes: TR-FRET enzymatic activity assay, PI3Kβ
Type: biochemical
conditionSet: Table 2; TR-FRET, 2x Km ATP, 30 minutes at 25° C.
measuredQuantity: pIC50
// returns pIC50 (minus log10 of molar concentration), number only

// worked examples, pIC50 included
Given the compound CC[C@H](Nc1nc(N)nc2[nH]nc(Br)c12)c1nc2c(Cl)ccc(Cl)c2c(=O)n1-c1cc[nH]n1 , what is its reported pIC50? 7.92

Given the compound C[C@H](Nc1nc(N)nc2[nH]ncc12)c1nc2cccc(Cl)c2c(=O)n1-c1cc[nH]n1 , what is its reported pIC50? 5.74

New cases:
Given the compound Nc1nc(N)c(Cl)c(N[C@H](c2nc3cccc(Cl)c3c(=O)n2-c2cn[nH]c2)C2CC2)n1 , what is its reported pIC50? 7.49

Given the compound C[C@H](Nc1nc(N)nc(N)c1C#N)c1nc2ccc(F)cc2c(=O)n1-c1cc[nH]n1 , what is its reported pIC50? 8.70

* * *

subjectOfTest: PI3Kβ (Homo sapiens, UniProt P42338)
Construct: made in house
methodNotes: TR-FRET enzymatic activity assay, PI3Kβ
Format: biochemical
conditionSet: Table 2a; same assay
Below, each entry is listed alongside its reported IC50.
Give the value in µM but do not write µM after it.

// worked examples, IC50 included
Given the compound C[C@H](Nc1nc(N)nc(N)c1C#N)c1nc2c(Cl)ccc(Cl)c2c(=O)n1-c1c[nH]cn1 , what is its reported IC50? 0.0008

Given the compound C[C@@H](Nc1nc(N)nc(N)c1C#N)c1nc2c(Cl)cc(F)cc2c(=O)n1-c1cc[nH]n1 , what is its reported IC50? 0.019

Given the compound C[C@H](Nc1nc(N)nc(C(F)F)c1Cl)c1nc2c(Cl)cc(F)cc2c(=O)n1-c1cc[nH]n1 , what is its reported IC50? 0.628

Could you now consider this next compound?
Given the compound C[C@@H](Nc1nc(N)nc(N)c1C#N)c1nc2cccc(C(F)F)c2c(=O)n1-c1cc[nH]n1 , what is its reported IC50? 0.018
